Just for reference, paper PMC11207335 is where these values come from.

Experimental protocol: Metabolic stability of JP-1366 in human hepatocytes
Type: in vitro ADME
Test conditions: cryopreserved human hepatocytes; human hepatocytes, scaled with physiological parameters
Quantity name: CLint scaled at 1 µM (mL/min/kg)
Use mL/min/kg as the unit, but write only the number.

input: Given the entry `Cc1cccc(C)c1CNc1cc(C(=O)N2CCC2)cn2c(C)c(C)nc12` , report its measured CLint scaled at 1 µM.
output: 77.5

###

System tested: P-gp (Homo sapiens)
Construct: host or cells: LLC-PK1 (porcine kidney cells)
Experimental protocol: Permeability in LLC-PK1-P-gp cells
Format: in vitro ADME
Test conditions: pig, pH 7.4, with CsA 20 μM; 4 μM, LLC-PK1-P-gp, CsA 20 μM
Quantity name: Papp B→A at 1 h, 4 µM (×10⁻⁶ cm/s)
Return type: number; implicit unit ×10⁻⁶ cm/s.

input: Suppose we examine the compound `Cc1cccc(C)c1CNc1cc(C(=O)N2CCC2)cn2c(C)c(C)nc12` ; what Papp B→A at 1 h, 4 µM value has been reported?
output: 32

input: Fill in the blank: the reported Papp B→A at 1 h, 4 µM of `Cc1cccc(CO)c1CNc1cc(C(=O)N2CCC2)cn2c(C)c(C)nc12` is ____.
output: 62.8

###

Experimental protocol: Metabolic stability of JP-1366 in monkey hepatocytes
Assay type: in vitro ADME
Test conditions: cryopreserved monkey hepatocytes; monkey hepatocytes, scaled with physiological parameters
Quantity name: CLint scaled at 1 µM (mL/min/kg)
Field: numeric (mL/min/kg). Do not append units.

input: What value of measured CLint scaled at 1 µM is listed for `Cc1cccc(C)c1CNc1cc(C(=O)N2CCC2)cn2c(C)c(C)nc12` ?
output: 110

###

Quantity name: IC50 (nM)
Your answer is read as nM, so omit the unit and give the number.

input: IC50 of Cc1cccc(C)c1CNc1cc(C(=O)N2CCC2)cn2c(C)c(C)nc12 [JP-1366] on UniProt:P48039?
output: 870

###

System tested: BCRP (Homo sapiens, UniProt Q9UNQ0)
Construct: host or cells: LLC-PK1 (porcine kidney cells)
Sequence (Q9UNQ0 whole entry, species assumed): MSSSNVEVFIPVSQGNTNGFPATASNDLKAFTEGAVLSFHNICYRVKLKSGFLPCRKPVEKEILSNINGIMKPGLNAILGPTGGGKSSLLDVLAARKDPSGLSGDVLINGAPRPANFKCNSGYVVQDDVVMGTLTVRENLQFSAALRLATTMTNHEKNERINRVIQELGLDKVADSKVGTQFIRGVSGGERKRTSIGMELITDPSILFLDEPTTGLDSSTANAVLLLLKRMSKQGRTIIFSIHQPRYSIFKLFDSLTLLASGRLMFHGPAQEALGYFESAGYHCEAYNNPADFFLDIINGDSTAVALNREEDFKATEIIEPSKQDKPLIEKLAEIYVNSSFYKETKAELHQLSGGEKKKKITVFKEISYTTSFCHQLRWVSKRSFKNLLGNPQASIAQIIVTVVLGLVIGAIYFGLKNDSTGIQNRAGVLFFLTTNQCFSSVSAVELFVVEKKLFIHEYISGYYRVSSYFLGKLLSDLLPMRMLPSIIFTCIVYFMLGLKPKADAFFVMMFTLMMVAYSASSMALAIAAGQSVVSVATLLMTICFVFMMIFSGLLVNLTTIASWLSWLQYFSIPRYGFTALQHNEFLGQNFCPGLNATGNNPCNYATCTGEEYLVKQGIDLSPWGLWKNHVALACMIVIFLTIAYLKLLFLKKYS
Experimental protocol: Permeability in LLC-PK1-BCRP cells
Assay type: in vitro ADME
Test conditions: pig, pH 7.4; LLC-PK1-BCRP, concentration range of 0.3–85 μM; read-out: ER
Quantity name: efflux ratio at 1 h

input: May I ask what efflux ratio at 1 h has been recorded for `Cc1cccc(CO)c1CNc1cc(C(=O)N2CCC2)cn2c(C)c(C)nc12` ?
output: 1.1 to 1.7

###

System tested: P-gp (Homo sapiens, UniProt P08183)
Construct: host or cells: LLC-PK1 (porcine kidney cells)
Sequence (P08183 whole entry): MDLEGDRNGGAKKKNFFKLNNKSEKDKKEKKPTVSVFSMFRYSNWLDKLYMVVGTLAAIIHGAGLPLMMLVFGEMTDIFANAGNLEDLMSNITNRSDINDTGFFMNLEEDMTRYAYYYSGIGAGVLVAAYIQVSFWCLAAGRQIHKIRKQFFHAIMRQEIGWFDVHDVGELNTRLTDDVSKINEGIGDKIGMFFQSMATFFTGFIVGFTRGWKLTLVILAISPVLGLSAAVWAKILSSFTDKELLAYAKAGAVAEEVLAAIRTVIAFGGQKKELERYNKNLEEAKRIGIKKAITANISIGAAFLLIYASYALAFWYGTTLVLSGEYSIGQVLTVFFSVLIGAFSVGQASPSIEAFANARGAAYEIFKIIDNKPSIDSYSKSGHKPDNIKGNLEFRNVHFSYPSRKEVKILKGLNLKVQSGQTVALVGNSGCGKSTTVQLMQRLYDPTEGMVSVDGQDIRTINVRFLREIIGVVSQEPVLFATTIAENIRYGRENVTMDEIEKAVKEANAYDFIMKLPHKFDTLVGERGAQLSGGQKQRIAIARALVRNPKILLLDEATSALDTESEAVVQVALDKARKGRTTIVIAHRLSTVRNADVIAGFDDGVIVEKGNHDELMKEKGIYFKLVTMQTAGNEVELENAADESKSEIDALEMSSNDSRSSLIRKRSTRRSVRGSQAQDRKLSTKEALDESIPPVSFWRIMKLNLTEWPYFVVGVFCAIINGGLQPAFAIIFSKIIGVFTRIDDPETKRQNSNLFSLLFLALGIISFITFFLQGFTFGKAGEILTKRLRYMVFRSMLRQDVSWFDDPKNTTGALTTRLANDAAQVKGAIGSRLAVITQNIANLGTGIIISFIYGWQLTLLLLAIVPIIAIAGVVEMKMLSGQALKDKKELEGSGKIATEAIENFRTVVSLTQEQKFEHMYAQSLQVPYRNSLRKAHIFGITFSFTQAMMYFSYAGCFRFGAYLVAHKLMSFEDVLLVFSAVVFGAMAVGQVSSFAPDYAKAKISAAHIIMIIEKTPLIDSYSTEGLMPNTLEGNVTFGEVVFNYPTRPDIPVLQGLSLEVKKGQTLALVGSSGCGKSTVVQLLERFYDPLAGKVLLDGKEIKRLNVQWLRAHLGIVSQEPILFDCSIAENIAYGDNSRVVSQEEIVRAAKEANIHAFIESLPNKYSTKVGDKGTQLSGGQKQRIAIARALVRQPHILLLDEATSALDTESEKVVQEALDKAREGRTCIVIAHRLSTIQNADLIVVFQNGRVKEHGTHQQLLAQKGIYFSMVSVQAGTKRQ
Experimental protocol: Permeability in LLC-PK1-P-gp cells
Type: in vitro ADME
Test conditions: pig, pH 7.4; 4 μM, LLC-PK1-P-gp, Control; read-out: ER
Quantity name: efflux ratio at 1 h, 4 µM

input: # get_value(readout= efflux ratio at 1 h, 4 µM, system= P-gp (Homo sapiens, UniProt P08183)) for `Cc1cccc(CO)c1CNc1cc(C(=O)N2CCC2)cn2c(C)c(C)nc12`
output: 14.2

###

Tested on: human, dog, monkey, mouse, and rat hepatocytes
Experimental protocol: In vitro metabolic profiling of JP-1366 in hepatocytes
Type: in vitro ADME
Test conditions: 10 µM JP-1366, 60 min; H human, D dog, Mk monkey, M mouse, R rat
Quantity name: Hepatocytes (species in which the metabolite was found)

input: Enter reported Hepatocytes (species in which the metabolite was found) observed with human, dog, monkey, mouse, and rat hepatocytes for `Cc1nc2c(N)cc(C(=O)N3CCC3)cn2c1C`
output: H, D, Mk, M, R

input: Record `Cc1cccc(CO)c1CNc1cc(C(=O)N2CCC2)cn2c(C)c(C)nc12` : what is its Hepatocytes (species in which the metabolite was found) with human, dog, monkey, mouse, and rat hepatocytes?
output: H, D, Mk, M, R

input: State its Hepatocytes (species in which the metabolite was found) on human, dog, monkey, mouse, and rat hepatocytes: Cc1cccc(COC2OC(C(=O)O)C(O)C(O)C2O)c1CNc1cc(C(=O)N2CCC2)cn2c(C)c(C)nc12 (stereo not shown)
output: H, D, Mk, M, R
